In this section we review reported TGFβ inhibition, % values for a set of compounds.
tested on: TGFβ signal; experiment: TGFβ signal inhibitory activity, (SBE)4-Luc luciferase reporter in A549 cells; format: cell-based, human; settings: test compound 3 μM; TGFβ-1 2 ng/ml, 4 hr, A549 (SBE)4-Luc
Experimental Endpoint: TGFβ inhibition, % (%)

structure_notation=COc1cc2c(Oc3cc4ccccc4nc3C)ccnc2cc1OCCN1CCOCC1.Cl.Cl.Cl measured_number=100
structure_notation=COc1cc2nccc(Oc3ccc(C)cc3C(=O)c3ccccc3)c2cc1OC.Cl measured_number=98
structure_notation=COc1cc2nccc(Oc3ccccc3C(=O)c3ccccc3)c2cc1OC.Cl measured_number=57
structure_notation=COc1cc2c(Oc3cc(C)c(C)cc3C(C)=O)ccnc2cc1OCCCN1CCOCC1.Cl.Cl measured_number=100
structure_notation=COc1cc2nccc(Oc3ccc(Cl)cc3C(=O)c3ccccc3)c2cc1OC.Cl measured_number=100
structure_notation=COc1ccc(Oc2ccnc3cc(OC)c(OC)cc23)c(C(C)=O)c1.Cl measured_number=94

Recorded values, source patent US7560558B2.
